The origin of these recorded values is ChEMBL document CHEMBL1143344.

# System: PC-3
# method: Cytotoxicity against human PC3 cells after 72 hrs by WST1 assay
# Format: functional, cell-based
# particulars: PC-3, 72 h
pIC50: −log10 of the molar value.
Label scheme for pIC50: lower than 5 is false, 5 and above is true.

Q: hey, is pIC50 for this one >= 5? "O=C(Nc1cc(CO)cc(Nc2c3ccccc3nc3ccccc23)c1)Oc1ccc(N(CCCl)CCCl)cc1"
Result: true

Q: hey, is pIC50 for this one >= 5? "CC(C)OC(=O)Nc1cc(COC(=O)Nc2ccc(N(CCCl)CCCl)cc2)cc(Nc2c3ccccc3nc3ccccc23)c1"
Result: false

Q: hey, is pIC50 for this one >= 5? "Cc1ccc(NC(=O)Oc2ccc(N(CCCl)CCCl)cc2)cc1Nc1c2ccccc2nc2c(C)cccc12"
Result: true

Q: hey, is pIC50 for this one >= 5? "CCOC(=O)Nc1cc(COC(=O)Oc2ccc(N(CCCl)CCCl)cc2)cc(Nc2c3ccccc3nc3ccccc23)c1"
Result: false

Q: hey, is pIC50 for this one >= 5? "COc1ccc(Nc2c3ccccc3nc3c(C)cccc23)cc1NC(=O)Oc1ccc(N(CCCl)CCCl)cc1"
Result: true

Q: hey, is pIC50 for this one >= 5? "Cc1cccc2c(Nc3cc(CO)cc(NC(=O)Oc4ccc(N(CCCl)CCCl)cc4)c3)c3ccccc3nc12"
Result: true
